Measured TGI by item
System: TK-10 renal
assay remarks: NCI tumour cell line growth inhibition, 48 h

Worked examples follow.
>>> result("COc1cc2oc(=O)cc(C)c2c(OC)c1O")
"> 100 µM"
>>> result("C[N+](C)(C)CC1CCC(C[N+](C)(C)C)C1=O (stereo unspecified)")
"6.39 µM"
>>> result("N#Cc1c(C#N)c(-c2ccccc2)n(Cc2ccccc2)c1N")
"> 100 µM"

Item under review: O=C1CNC(=O)/C(=C/c2c[nH]c3ccccc23)N1 . Reported TGI?
> 100 µM

Would you mind telling me what TGI value was observed for O=C(CSCC(=O)N/N=C/c1ccccc1O)N/N=C\c1ccccc1O ?
> 100 µM

I have this molecule here, O=C(c1ccco1)N(C(=S)N1CCN(c2ccccc2)CC1)C1CCCCC1 , and I need its recorded TGI.
> 100 µM

====

# maps each entry to its TGI
Tested on: SF-268 CNS
assay remarks: NCI tumour cell line growth inhibition, 48 h
The reply should contain only the number, in µM.

Here is how some compounds turned out for TGI.
>>> measured_number("Cc1cn(C2C=CC(COP(=O)(OCc3ccc([N+](=O)[O-])o3)N(C)CCCCCl)O2)c(=O)[nH]c1=O (centres undefined)")
23.8
>>> measured_number("S=C=Nc1ccc(CSc2nc3ccccc3[nH]2)cc1")
37.8
>>> measured_number("NCCCCCNc1noc(Cc2c[nH]c3cc(Br)ccc23)n1")
29.1

Recorded TGI for CN(CCNC(=O)c1c[nH]c2c1ccc1ccccc12)CCNC(=O)c1c[nH]c2c1ccc1ccccc12 , please?
11.6

====

System: NCI-H460 lung
assay remarks: NCI tumour cell line growth inhibition, 48 h
Readings of TGI for the listed compounds

Form field: reported TGI of Cc1ccc(Nc2cc(Cl)c([N+](=O)[O-])cc2[N+](=O)[O-])cc1
5.45 µM

Bench note: what TGI did C=C1CCCC(C)(C)[C@H]1C/C=C1\CCOC1=O show?
24.4 µM

State the recorded TGI for this entry: COc1cccc(-c2nn(-c3ccccc3)cc2-c2ccnc(NCCCNC(=O)c3cccc(C(F)(F)F)c3)c2)c1
18.2 µM

Quick one: TGI of COc1cc(Cl)cc(-c2nn(-c3cccc(NC(=O)Nc4cccc(C(F)(F)F)c4)c3)cc2-c2ccncc2)c1 ?
4.66 µM

Returns the measured TGI for the input compound. Input: O=C(c1cccc2ccccc12)C1S(=O)(=O)OCCOS1(=O)=O
> 100 µM

Which value of TGI has been reported for C=C(Cl)/C(=C\Cl)CCC(Cl)C(C)C (stereo not given) in the records?
> 100 µM

Suppose we examine the compound CC(C)c1ccc(C2NC(=S)NC3=C2c2ccccc2C3=O)cc1 (stereo not given) ; what TGI value has been reported?
> 67.3 µM

Fill in: TGI of COc1ccc(/C=C2\C[C@H]3[C@@H]4CC=C5C[C@@H](OC(C)=O)CC[C@]5(C)[C@H]4CC[C@]3(C)\C2=N\O)cc1OC is ___
> 100 µM

Using the record for Cc1cc(C(=O)/C=C/c2ccc[nH]2)ccc1-n1ccc(C(F)(F)F)n1 , report its TGI.
> 100 µM

Fill in the blank: the reported TGI of CCC1C(C)C=NN1c1nc(N)nc(C(C#N)=Nc2ccc(N(C)C)cc2)n1 (stereo not given) is ____.
24.5 µM

// returns reported TGI for input CSc1nc(Nc2ccccc2Cl)c2c(N)nn(C)c2n1
> 100 µM

Return reported TGI; argument: CC1(C)CCCC2(C)C3C(O)CC2(C)C(O)C31 (stereo not given)
> 100 µM

Tell me the measured TGI of N#Cc1cc2c(cc1C#N)/C(=N\c1cccc(N)n1)N=C2Nc1cccc(N)n1 , please.
> 100 µM

TGI lookup needed for COC(=O)CN(CC(O)C(NC(C)=O)C(O)C=O)C(=O)OCc1ccccc1 (stereo not given) , thanks.
> 100 µM
